Numbers sourced from patent US6727237B2.

# targetOfAssay: bacterial NAD synthetase enzyme (Bacillus subtilis, UniProt P08164)
# Sequence (P08164 2-272 limits assumed): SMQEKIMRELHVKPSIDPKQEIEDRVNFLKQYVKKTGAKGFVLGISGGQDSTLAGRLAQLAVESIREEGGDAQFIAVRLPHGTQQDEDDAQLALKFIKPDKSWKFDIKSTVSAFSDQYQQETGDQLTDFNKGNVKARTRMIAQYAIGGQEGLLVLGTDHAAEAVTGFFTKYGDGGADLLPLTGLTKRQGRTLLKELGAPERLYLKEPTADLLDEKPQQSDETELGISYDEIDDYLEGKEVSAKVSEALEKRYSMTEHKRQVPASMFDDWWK
# assay: biochemical
# Assay type: biochemical
# measurementSetup: compound at 0.2 mM (Table 312B)
measureName: % Inhibition (%)

moleculeSmiles	measureName	resultValue
O=C(OCCCCCCCCOc1ccccc1N1CCCC1)c1cccnc1	% Inhibition	3
O=C(OCCCCCCCCOc1ccc(C(=O)c2ccccc2)cc1)c1cccnc1	% Inhibition	29
CC(=O)C=Cc1ccc(OCCCCCCCCOC(=O)c2ccc[n+](C)c2)cc1	% Inhibition	61
CC(=O)c1cccc(OCCCCCCCCOC(=O)c2ccc[n+](C)c2)c1	% Inhibition	36
O=C(OCCCCCCCCOc1ccc(N2C(=O)c3ccccc3C2=O)cc1)c1cccnc1	% Inhibition	23
O=C(OCCCCCCCCOc1ccc(Oc2ccccc2)cc1)c1cccnc1	% Inhibition	29
C[n+]1cccc(C(=O)OCCCCCCCCOc2cccc(OC(=O)c3ccccc3)c2)c1	% Inhibition	85
C[N+](C)(C)c1ccc(CC(=O)OCCCCCCCCOc2ccc(C(=O)c3ccccc3)cc2)cc1	% Inhibition	100
